growth values, listed per item
Test system: UO-31 renal
Assay: NCI-60 one-dose screen, 48 h (100 = growth as untreated, 0 = no growth, -100 = all killed)
Conditions: 10 µM unless noted
About 83,000 compounds went through this panel and 20% of them were active in at least one assay; those are over-represented in the sample as a whole. Calls of active or inactive are those of the source. How the source made its calls: active means growth percent below 10; inactive means the rest.
Outcome Measure: growth

| Compound | Outcome Measure | Experimental Result |
| --- | --- | --- |
| Cc1nc2nc(SCC(=O)O)[nH]c2c(=O)[nH]1 | growth | 92.2% (inactive) |
| CCOC(=O)/C(C#N)=C\Nc1ccc2ncnc(Nc3ccc(Cl)cc3Cl)c2c1 | growth | 42% (inactive) |
| C[C@]12CC[C@@H]3c4cc(OC(F)F)c(OS(N)(=O)=O)cc4CC[C@H]3[C@@H]1CC[C@@H]2OS(N)(=O)=O | growth | 42.9% (inactive) |
| CCCCCCNC(=O)Oc1ccc(/C(=C(\C)c2ccc(OC)cc2)c2ccc(OCCN3CCCCC3)cc2)cc1 | growth | 21.6% (inactive) |
| CCN(CC)CCNc1nc2ccccc2c2c(=O)c3cc(Cl)ccc3sc12 | growth | 43.7% (inactive) |
| CC1(C)C2CC1C1(/C=N\Nc3ccccc3)C(C2)C(C#N)(C#N)C1(C#N)C#N (stereo not given) | growth | 66.6% (inactive) |
| COc1ccc(NC(=O)n2nc(/C=C\c3ccc(O)c(OC)c3)cc2/C=C\c2ccc(O)c(OC)c2)cc1 | growth | 22.7% (inactive) |
| COc1ccc(C(=O)N=Nc2c(O)n(C)c3ccccc23)cc1 | growth | 69.3% (inactive) |
| O=C(CSc1nccc(Nc2ccc(S(=O)(=O)Nc3nccs3)cc2)n1)c1ccc(C(F)(F)F)cc1 | growth | 69.2% (inactive) |
| CCOC(=O)CC1C(COC(=O)NC)OC(n2cnc3c(NC(=O)Nc4ccccc4)ncnc32)C1O[Si](C)(C)C(C)(C)C (stereo not given) | growth | 41.9% (inactive) |
| COc1cc(C2CC(c3cccc(Br)c3)=NN2C(C)=O)cc(OC)c1OC (stereo not given) | growth | -27.7% (active) |
| Cc1cc(=O)oc2cc(OC(=O)N3CCN(C)CC3)ccc12 | growth | 85.3% (inactive) |
| C=C1CC[C@H](C(C)C)[C@@H]2[C@H]1[C@H]1CC(=C)[C@@H](O)CC[C@@](C)(O)[C@@H]2O1 | growth | 82.6% (inactive) |
| Cn1cc(-c2cc3ncnc(Nc4ccc(CC(=O)Nc5cc(C(C)(C)C)on5)cc4)c3s2)cn1 | growth | 11% (inactive) |
| C#Cc1cccc(NC(=O)c2ccc(NC(=O)C=C)cc2)c1 | growth | -67.2% [8.25 µM] (active) |
